Cited source: patent US20250333467A1

Experimental target: T1, human RXFP1 (human, UniProt Q9HBX9 1-757)
T1 sequence (looked up): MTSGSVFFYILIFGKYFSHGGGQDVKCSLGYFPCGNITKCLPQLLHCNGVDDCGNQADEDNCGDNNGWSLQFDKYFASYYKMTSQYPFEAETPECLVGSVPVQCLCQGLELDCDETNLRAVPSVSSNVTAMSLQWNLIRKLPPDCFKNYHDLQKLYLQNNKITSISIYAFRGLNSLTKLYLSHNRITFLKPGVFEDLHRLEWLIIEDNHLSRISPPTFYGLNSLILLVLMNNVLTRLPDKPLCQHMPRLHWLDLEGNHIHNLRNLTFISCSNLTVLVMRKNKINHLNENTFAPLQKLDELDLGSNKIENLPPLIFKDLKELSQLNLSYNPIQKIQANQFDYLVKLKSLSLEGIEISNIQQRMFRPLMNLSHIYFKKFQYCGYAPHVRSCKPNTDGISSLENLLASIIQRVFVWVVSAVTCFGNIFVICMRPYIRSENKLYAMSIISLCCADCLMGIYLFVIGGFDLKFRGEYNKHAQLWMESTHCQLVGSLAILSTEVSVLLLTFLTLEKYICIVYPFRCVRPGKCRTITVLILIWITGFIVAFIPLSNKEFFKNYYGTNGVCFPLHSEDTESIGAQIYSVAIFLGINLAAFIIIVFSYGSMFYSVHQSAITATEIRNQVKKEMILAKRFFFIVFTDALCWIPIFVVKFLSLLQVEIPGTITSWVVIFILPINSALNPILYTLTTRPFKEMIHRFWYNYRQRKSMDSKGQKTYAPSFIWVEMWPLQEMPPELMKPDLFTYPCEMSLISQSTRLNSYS
Assay: cell-based or functional assay
Just a reminder that ties go to N: only Transient HEK293 hRXFP1 cAMP EC50 strictly below 10 nM counts as Y.

- Binder: "SEQ ID NO: 111 (Fc fusion) DKTHTCPPCPAPEAAGGPSVFLFPPKPKDTLMISRTPEVTCVVVDVSHEDPEVKFNWYVDGVEVHNAKTKPREEQYNSTYRVVSVLTVLHQDWLNGKEYKCKVSNKALAAPIEKTISKAKGQPREPQVYTLPPSRDELTKNQVSLTCLVKGFYPSDIAVEWESNGQPENNYKTTPPVLDSDGSFFLYSKLTVDKSRWQQGNVFSCSVLHEALHSHYTQKSLSLSPGEGGSDSWQEEVIKLCGRELVRAQIAICGKSTASDAAGAQAQAGARQLYSALANKCCHVGCTKQSLAQFC"
  Cat: "Y"
- Binder: "SEQ ID NO: 95 (Fc fusion) DKTHTCPPCPAPEAAGGPSVFLFPPKPKDTLMISRTPEVTCVVVDVSHEDPEVKFNWYVDGVEVHNAKTKPREEQYNSTYRVVSVLTVLHQDWLNGKEYKCKVSNKALAAPIEKTISKAKGQPREPQVYTLPPSRDELTKNQVSLTCLVKGFYPSDIAVEWESNGQPENNYKTTPPVLDSDGSFFLYSKLTVDKSRWQQGNVFSCSVLHEALHSHYTQKSLSLSPGEGGSDSWQEEVIKLCGRELVRAQIAICGKSTASDAAGAQADAGARQLYSALANKCCHVGCTKRSLAQFC"
  Cat: "N"
- Binder: "SEQ ID NO: 118 (Fc fusion) DKTHTCPPCPAPEAAGGPSVFLFPPKPKDTLMISRTPEVTCVVVDVSHEDPEVKFNWYVDGVEVHNAKTKPREEQYNSTYRVVSVLTVLHQDWLNGKEYKCKVSNKALAAPIEKTISKAKGQPREPQVYTLPPSRDELTKNQVSLTCLVKGFYPSDIAVEWESNGQPENNYKTTPPVLDSDGSFFLYSKLTVDKSRWQQGNVFSCSVLHEALHSHYTQKSLSLSPGEGGSDSWQEEVIKLCGRELVRAQIAICGQSTASDAAGAQAQAGARQLYSALANKCCHVGCTKQSLAQFC"
  Cat: "N"
- Binder: "SEQ ID NO: 104 (Fc fusion) DKTHTCPPCPAPEAAGGPSVFLFPPKPKDTLMISRTPEVTCVVVDVSHEDPEVKFNWYVDGVEVHNAKTKPREEQYNSTYRVVSVLTVLHQDWLNGKEYKCKVSNKALAAPIEKTISKAKGQPREPQVYTLPPSRDELTKNQVSLTCLVKGFYPSDIAVEWESNGQPENNYKTTPPVLDSDGSFFLYSKLTVDKSRWQQGNVFSCSVLHEALHSHYTQKSLSLSPGEGGSDSWQEEVIKLCGRELVRAQIAICGQSTASDAAGAQAQAGARQLYSALANKCCHVGCTKRSLAQFC"
  Cat: "Y"
- Binder: "SEQ ID NO: 86 (Fc fusion) DKTHTCPPCPAPEAAGGPSVFLFPPKPKDTLMISRTPEVTCVVVDVSHEDPEVKFNWYVDGVEVHNAKTKPREEQYNSTYRVVSVLTVLHQDWLNGKEYKCKVSNKALAAPIEKTISKAKGQPREPQVYTLPPSRDELTKNQVSLTCLVKGFYPSDIAVEWESNGQPENNYKTTPPVLDSDGSFFLYSKLTVDKSRWQQGNVFSCSVLHEALHSHYTQKSLSLSPGKGGSDSWQEEVIKLCGRELVRAQIAICGKSTASDAAGADADAGARQLYSALANKCCHVGCTKRSLAQFC"
  Cat: "Y"
